Experimental Details: DNDI: Cytotoxicity against human MRC-5 lung fibroblast cells.
Reported Conditions: IC50
pIC50: −log10 of the molar value.
Reported values of pIC50 for individual entries
Measurement Kind: pIC50

> print(dat)
                                    compound  recorded.measurement
 1  O=S1(=O)CCC(N2COc3c(cc(Cl)c4cccnc34)C2)C1 (stereo not drawn)                < 5.38
 2  CN(C)c1ccc(/C=C/c2cc(-c3ccccc3)o[n+]2C)cc1                < 5.68
 3  CCN1/C(=C/C(=C/c2sc3ccccc3[n+]2CC)OC)Sc2ccccc21                  5.65
 4  COc1ccc(/C=N/NC(=O)C(OC)c2ccccc2)c(OC)c1OC (stereo not drawn)                < 5.38
 5    O=C1c2cccc3c(N4CCOCC4)ccc(c23)C(=O)N1O                < 4.38
 6  CC(=O)NC1=C(N2CCN(C(=O)c3ccco3)CC2)C(=O)c2ccccc2C1=O                < 4.38
 7         CCN(Cc1ccccc1)S(=O)(=O)c1ncn[nH]1                < 4.38
 8           COc1cc(CNCCO)cc(Br)c1OCc1ccccc1                < 4.38
 9                N#Cc1ccccc1N=NNc1ccccc1C#N                < 4.38
10     Cc1ccc(O)c(NN=C2C(=O)CC(C)(C)CC2=O)c1                < 5.38
11            C/C(CC(C)(C)C1CCCCC1)=N/NC(N)N                < 5.38
12    CC(=O)C(C(C)=O)C1=CC(=O)C(=O)c2ccccc21                < 4.68
13       COc1ccc(CCON2C(N)=NC(N)=NC2(C)C)cc1                < 5.38
14       Cc1cc(C)c2nc(C)cc(Nc3ccc(O)cc3)c2c1                < 4.68
15  NC1=NC(CCc2ccccc2)N(OCCCc2ccccc2)C(N)=N1 (stereo not drawn)                < 5.38
16  CC(CON1C(N)=NC(N)=NC1(C)C)Cc1cccc(Br)c1 (stereo not drawn)                < 5.38
17     O=C(N/N=C/c1sc2ccccc2c1O)c1ccc(O)cc1O                < 5.38
18         CCCN(CCC)C(=O)Cn1ccc(=N)c2ccccc21                < 4.38
19  COc1ccc(CC(C)N)c(Sc2ccccc2)c1 (stereo not drawn)                < 4.38
20                  Cc1ccc2ccc3ccc(C)nc3c2n1                < 4.68
21           Oc1ccc(Cn2cnc3ccccc32)c2cccnc12                < 5.38
22  C=CCn1c(-c2ccccc2Cl)nn(C2CCC3OCC2O3)c1=S (stereo not drawn)                < 4.68
23  CCC(/C=C1\Sc2ccccc2N1C)=C\c1sc2ccccc2[n+]1C                  5.64
24  COc1ccc(-c2nc(Nc3ccc(F)cc3F)c3ccccc3n2)cc1OC                < 4.38
25                   CCCCOc1ccc(CSC(=N)N)cc1                < 4.68
26     Brc1ccc(-c2nc(N3CCNCC3)c3ccccc3n2)cc1                < 4.98
27  CCOc1ccc(N(C(C)=O)C2=C(N(C)C)C(=O)c3ccccc3C2=O)cc1                < 5.38
28  CC(C)=C1C2CCC1C1C(=O)N(NC(=O)C(C)Oc3ccc(C)c(C)c3)C(=O)C21 (stereo not drawn)                < 4.38
29            CC(C)(C)c1ccc(/C=N/n2cnnc2)cc1                < 4.38
30  Cc1[nH]c2ccccc2c1/C=C1\SC(=N)N(c2nccs2)C1=O                < 4.68
31  COc1ccc(C(NC(=O)CC(C)C)c2ccc3cccnc3c2O)cc1OC (stereo not drawn)                  6.16
32     CC(=O)NC(=S)NNC(=O)c1ccccc1OCc1ccccc1                < 4.68
33    CCCCc1c(C)[nH]n(-c2nc3ccccc3[nH]2)c1=O                < 5.98
34  CCc1cc(Sc2ccccc2NC(=O)C2CCCCC2)n2nc(C)nc2n1                < 4.38
35              C/N=c1\nnc(Nc2ccccc2O)c(N)o1                  5.33
36         CCc1ccccc1Nc1nc(-c2ccc(O)cc2O)cs1                < 4.38
37  Cc1ccsc1/C=C(\C(=O)NCc1cccnc1)S(=O)(=O)c1ccccc1                < 4.68
38                  Oc1cccc2ccc(CNC3CC3)nc12                < 4.68
39          C=CCc1ccc(OCCCCCN2CCNCC2)c(OC)c1                < 4.38
40  CC(C)NCC(O)COc1cc2ccsc2c2ccccc12 (stereo not drawn)                  5.12
41          CCN1CCO/C1=C\C=C\C1=[N+](CC)CCO1                < 4.38
42  C/C(=C\c1ccccc1)c1nc2c(=O)n(C)c(=O)nc-2n(C)n1                < 4.68
43     Cc1ccccc1OCCn1c(=N)n(CC(C)C)c2ccccc21                < 4.68
44  CCCc1cc(=O)[nH]c(-n2nc(C)cc2NC(=O)c2ccc(OC)c(OC)c2)n1                < 4.38
45  COc1ccccc1C(NC(=O)c1ccccc1)c1ccc2cccnc2c1O (stereo not drawn)                < 4.98
46                 Cc1ccccc1-n1sc2ccccc2c1=O                < 4.68
47  O=C(N/N=C/c1cc2c3c(c1O)CCCN3CCC2)c1ccncc1                < 6.38
48  CC(C)(C)c1ccc(Cn2c(=N)n(CCO)c3ccccc32)cc1                < 4.38

====

Experimental Details: DNDI: Cytotoxicity against L-6 rat myoblasts from skeletal muscle.
Format: toxicity, cell-based, Muscle tissue, L6
Reported Conditions: L-6 rat skeletal muscle myoblast cells
Hi! Just check whether IC50 is below 9 µM. Below gives fulfilled, equal or above gives not fulfilled.

> print(dat)
                                        mol  discrete.label
1  Cc1cc(=O)[nH]c(-n2nc(C)cc2NC(=O)C2CCCC2)n1       fulfilled
2  CCc1ccccc1/N=C(\NCCN1CCOCC1)NC(=O)c1ccccc1   not fulfilled
3     CC(C)(C)C(=O)NCCc1csc(-c2cccc(F)c2)n1   not fulfilled
4  CCS(=O)(=O)N1CCCc2ccc(NS(=O)(=O)c3ccccc3F)cc21       fulfilled
5  O=C(NCCc1n[nH]c(-c2ccc(F)cc2)n1)c1cccc(F)c1   not fulfilled

====

Experimental Details: DNDI: Cytotoxicity against human MRC-5 lung fibroblast cells.
Reported Conditions: IC50
Reported values of IC50 for individual entries
Measurement Kind: IC50

> print(dat)
                                    molecule  recorded.measurement
 1     C=CC[n+]1ccc(/C=C/c2ccccc2O)c2ccccc21             > 41.7 µM
 2  CC(C)c1ccc(-c2csc(NC(=O)C3C4CCC(O4)C3C(=O)O)n2)cc1 (configuration not stated)             > 41.7 µM
 3  Cc1c(C)c(C)c2c(CC(C)N)c[nH]c2c1C (configuration not stated)             > 41.7 µM
 4  CCOc1cc2c(cc1OCC)C(c1ccc(Cl)cc1)NCC2 (configuration not stated)             > 20.8 µM
 5    COc1ccc2c(-c3ccccc3)cc(NCCCN(C)C)nc2c1             > 20.8 µM
 6           Cc1ccccc1C(=O)O/N=C(\N)Cc1cccs1             > 20.8 µM
 7  c1ccc2c(c1)CC1CNCc3cccc(c31)S2 (configuration not stated)             > 41.7 µM
 8  CCCC[n+]1c(/C=C2/C=CN(CC)c3ccc(C)cc32)ccc2ccccc21             > 4.17 µM
 9          O=C(N/N=C/c1cc(I)ccc1O)c1ccccc1O             > 4.17 µM
10  Cc1ccc([N+]2=C3SCCCN3C(O)(c3ccc(Cl)cc3Cl)C2)cc1 (configuration not stated)             > 4.17 µM
11        C[N+](CC#CC1CC1)(C1CCCCC1)C1CCCCC1             > 41.7 µM
12  O=C1CC(n2nnnc2-c2ccccc2)C2COC1O2 (configuration not stated)             > 20.8 µM
